Test system: E. coli
assay.explanation: AK assay 384-well format, Prestwick library screening
Format: cell-based, Escherichia coli
condition.summary: Escherichia coli, 3 h; planktonic E. coli; 50 μM final drug concentration; positive cutoff 3-fold increase; read-out: AK-based Prestwick library screening result, E. coli (fold increase in extracellular AK activity)
Where a name gives a salt, the structure may show the parent alone.
Could you label it Satisfied if measured fold induction at 50 µM is 1 or higher, and Not satisfied otherwise?

compound: Cc1[nH]c(=O)c(C#N)cc1-c1ccncc1
study.target: E. coli
assigned.class: Not satisfied

compound: CNC1(C)C2CCC(C2)C1(C)C (stereo not shown) [Mecamylamine hydrochloride]
study.target: E. coli
assigned.class: Satisfied

compound: CC1(C)S[C@@H]2[C@H](NC(=O)Cc3ccccc3)C(=O)N2[C@H]1C(=O)O [Benzylpenicillin sodium]
study.target: E. coli
assigned.class: Satisfied

compound: CCCC1C(=O)N2C(N(C)C)=Nc3ccc(C)cc3N2C1=O (stereo not shown)
study.target: E. coli
assigned.class: Satisfied

compound: CC(=O)O[C@]1(C(C)=O)CC[C@H]2[C@@H]3C=C(Cl)C4=CC(=O)[C@@H]5C[C@@H]5[C@]4(C)[C@H]3CC[C@@]21C [Cyproterone acetate]
study.target: E. coli
assigned.class: Not satisfied

compound: O=C(CCNNC(=O)c1ccncc1)NCc1ccccc1 [Nialamide]
study.target: E. coli
assigned.class: Satisfied
